Data provenance is patent US8017792B2.

Experimental Target: Human SGLT2 (Homo sapiens, UniProt P31639)
Sequence (P31639 1-672): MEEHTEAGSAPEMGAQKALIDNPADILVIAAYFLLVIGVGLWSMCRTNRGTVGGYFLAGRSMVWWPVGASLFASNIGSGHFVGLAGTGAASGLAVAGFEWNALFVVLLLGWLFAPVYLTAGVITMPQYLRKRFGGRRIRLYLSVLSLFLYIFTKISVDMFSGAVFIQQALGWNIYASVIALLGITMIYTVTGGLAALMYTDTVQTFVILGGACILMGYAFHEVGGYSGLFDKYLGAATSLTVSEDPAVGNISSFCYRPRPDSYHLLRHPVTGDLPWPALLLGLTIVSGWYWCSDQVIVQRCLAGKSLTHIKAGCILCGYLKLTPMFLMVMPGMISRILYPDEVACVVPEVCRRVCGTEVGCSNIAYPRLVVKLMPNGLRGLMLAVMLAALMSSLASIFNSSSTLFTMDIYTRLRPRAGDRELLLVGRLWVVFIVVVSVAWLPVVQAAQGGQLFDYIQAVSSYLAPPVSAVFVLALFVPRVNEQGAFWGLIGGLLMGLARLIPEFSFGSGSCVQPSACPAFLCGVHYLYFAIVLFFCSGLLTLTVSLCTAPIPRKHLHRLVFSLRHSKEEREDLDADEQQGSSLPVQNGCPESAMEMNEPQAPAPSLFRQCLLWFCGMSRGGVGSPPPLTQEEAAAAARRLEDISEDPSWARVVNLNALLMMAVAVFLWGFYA
Procedure Summary: Sodium-dependent sugar uptake inhibition test in CHO-K1 cells stably expressing human SGLT2 (Test Example 2)
Assay Conditions: CHO-K1 cells, [14C]methyl-α-D-glucopyranoside 1 mM, 37° C., one hour
pIC50: −log10 of the molar value.
Classify by pIC50. Ranges: group 1: < 6; group 2: ≥ 6 and < 7; group 3: ≥ 7

Solved cases below.
CCOc1ccc(Cc2cccc([C@@H]3S[C@H](CO)[C@@H](O)[C@H](O)[C@H]3O)c2)cc1 | group 1
CCOc1ccc(Cc2cc([C@@H]3S[C@H](CO)[C@@H](O)[C@H](O)[C@H]3O)c(OC)cc2OC)cc1 | group 2
OC[C@H]1S[C@@H](c2ccc(Cl)c(Cc3ccc(O)cc3)c2)[C@H](O)[C@@H](O)[C@@H]1O | group 2
CCOc1ccc(Cc2cc([C@@H]3S[C@H](CO)[C@@H](O)[C@H](O)[C@H]3O)c(OC)cc2Cl)cc1 | group 3
CSc1ccc(Cc2cc([C@@H]3S[C@H](CO)[C@@H](O)[C@H](O)[C@H]3O)ccc2Cl)cc1 | group 3

input: Which pIC50 category applies to "CCc1ccc(Cc2ccc([C@@H]3S[C@H](CO)[C@@H](O)[C@H](O)[C@H]3O)s2)cc1" here?
output: group 1

input: Which pIC50 category applies to "CCOc1ccc(Cc2cncc([C@@H]3S[C@H](CO)[C@@H](O)[C@H](O)[C@H]3O)c2)cc1" here?
output: group 1

input: Which pIC50 category applies to "CCOc1ccc(Cc2cc([C@@H]3S[C@H](CO)[C@@H](O)[C@H](O)[C@H]3O)c(O)cc2C)cc1" here?
output: group 3

input: Which pIC50 category applies to "CCOc1ccc(Cc2ccc(O)c([C@@H]3S[C@H](CO)[C@@H](O)[C@H](O)[C@H]3O)c2)cc1" here?
output: group 2

input: Which pIC50 category applies to "CCOc1ccc(Cc2cc([C@@H]3S[C@H](CO)[C@@H](O)[C@H](O)[C@H]3O)ccc2O)cc1" here?
output: group 1

input: Which pIC50 category applies to "CCOc1cc(F)c(Cc2cc([C@@H]3S[C@H](CO)[C@@H](O)[C@H](O)[C@H]3O)ccc2Cl)cc1F" here?
output: group 3

###

Experimental Target: Human SGLT2 (Homo sapiens)
Procedure Summary: Sodium-dependent sugar uptake inhibition test in CHO-K1 cells stably expressing human SGLT2 (Test Example 2)
Assay Conditions: CHO-K1 cells, [14C]methyl-α-D-glucopyranoside 1 mM, 37° C., one hour
Measured Attribute: IC50
State the result as a value with its unit after it.

Worked examples follow.
COc1cc(C)c(Cc2ccc(C(C)C)cc2)cc1[C@@H]1S[C@H](CO)[C@@H](O)[C@H](O)[C@H]1O | 93 nM
CCOc1ccc(Cc2cc([C@@H]3S[C@H](CO)[C@@H](O)[C@H](O)[C@H]3O)c(OC)cc2C)cc1 | 65 nM
CCOc1ccc(Cc2cc([C@@H]3S[C@H](CO)[C@@H](O)[C@H](O)[C@H]3O)ccc2Cl)cc1Cl | 1270 nM
CCOc1ccc(Cc2cc([C@@H]3S[C@H](CO)[C@@H](O)[C@H](O)[C@H]3O)ccc2OC)cc1 | 690 nM

Now for a further compound.
input: What value of measured IC50 is listed for "CCc1ccc(Cc2cccc([C@@H]3S[C@H](CO)[C@@H](O)[C@H](O)[C@H]3O)c2)cc1" ?
output: 1190 nM
